Entry source: patent US10894772B2

Test system: panelists
test-description: Confirmation of umami imparting and saltiness enhancing effect in 0.3 mass % sodium chloride (point score)
Type: in vivo
settings: 0.5 ppm in aqueous 0.3 mass % sodium chloride solution; average point of 10 panelists vs control; 0 no change, 1 slightly higher, 2 higher, 3 considerably higher, 4 extremely higher umami and saltiness, 5 bitter as lacking balance
Listing: umami and saltiness (average point) of selected compounds
quantity-name: umami and saltiness (average point)

| compound | measurement |
| --- | --- |
| COc1ccc(COCCCc2ccccn2)cc1 [invention product 3, 2-[3-(p-methoxybenzyloxy)propyl]pyridine] | 3.5 |
| Cc1ccc(C)c(COCCCc2ccccn2)c1 | 3.5 |
| c1ccc(COCCc2ccccn2)cc1 [comparative product 1, 2-(2-benzyloxyethyl)pyridine, reference compound] | 3.0 |
| Cc1ccc(COCCCc2ccccn2)cc1 [invention product 5, 2-[3-(p-methylbenzyloxy)propyl]pyridine] | 3.6 |
| c1ccc(CCSCCc2ccccn2)cc1 | 3.8 |
| c1ccc(COCCCCc2ccccn2)cc1 | 3.7 |
| c1ccc(CCOCCc2ccccn2)cc1 | 3.9 |
